Exercise: state measured pIC50 for each of the compounds provided.
# test target: His-BIR3 (241-356, XIAP) (Homo sapiens, UniProt P98170)
# Construct: additions of His-BIR3 (241-356, XIAP), fluorescein labeled SMAC peptide
# Sequence (P98170 241-356): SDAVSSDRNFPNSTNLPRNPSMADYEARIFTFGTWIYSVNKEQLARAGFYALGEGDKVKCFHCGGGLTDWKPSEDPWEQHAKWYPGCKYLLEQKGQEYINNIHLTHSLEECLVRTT
# assay text: XIAP-BIR3/SMAC Homogeneous Time Resolved Fluorescence (HTRF) Assay
# conditions: fluorescein labeled SMAC peptide
In plain terms, pIC50 is the concentration in mol/L turned into minus its base-10 logarithm.

Give the observed pIC50 of CN[C@@H](C)C(=O)N[C@H](C(=O)N1C[C@@H]2C[C@H]1C(=O)N[C@@H](C)C(=O)N[C@H](C(=O)NS(=O)(=O)C1CC1)Cc1ccc(cc1)OCc1cn(nn1)[C@H]1C[C@@H](C(=O)N[C@@H](Cc3ccc4ccccc4c3)C(=O)N[C@H](C(=O)O)Cc3ccc(cc3)OC/C=C/CO2)N(C(=O)[C@@H](NC(=O)[C@H](C)NC)C(C)(C)C)C1)C(C)(C)C [Example 103] for His-BIR3 (241-356, XIAP) (Homo sapiens, UniProt P98170).
7.17

Tell me pIC50 of CN[C@@H](C)C(=O)N[C@H](C(=O)N1C[C@H]2C/C=C/COc3ccc(cc3)C[C@@H](C(=O)NS(=O)(=O)C3CCCCC3)NC(=O)[C@H](Cc3ccc4ccccc4c3)NC(=O)[C@@H]3C[C@@H](CN3C(=O)[C@@H](NC(=O)[C@H](C)NC)C(C)(C)C)n3cc(nn3)COc3ccc(cc3)C[C@@H](C(=O)O)NC(=O)[C@H](Cc3ccc4ccccc4c3)NC(=O)[C@@H]1C2)C(C)(C)C [Example 24] when tested on His-BIR3 (241-356, XIAP) (Homo sapiens, UniProt P98170).
9.15

Value source: patent US20140135270A1
